# system.tested: pCDK2-CCNE1 proteins (Homo sapiens, UniProt P24941)
# protocol: Identification of covalent binding by intact mass spectrometry, with and without competitor PF-06873600
# experimental.context: intact mass spectrometry after borohydride reduction; unmodified CDK2 34096-34097 Da
value.kind: Observed mass value of the covalent complex between compound and CDK2 protein (Da)
Output spec: scalar in Da, unitless text.

smiles	unit.name	numeric.readout
CC(C)NC(=O)O[C@@H]1CC[C@H](c2cc(NC(=O)COc3cccc(NS(C)(=O)=O)c3C=O)n[nH]2)C1	Da	34588
CC1(NC(=O)O[C@@H]2CC[C@H](c3cc(NC(=O)COc4cccc(O)c4C=O)n[nH]3)C2)CC1	Da	34523
CC(C)NC(=O)O[C@@H]1CC[C@H](c2cc(NC(=O)COc3cccc(O)c3C=O)n[nH]2)C1	Da	34511
CC(C)NC(=O)O[C@@H]1CC[C@H](c2cc(NC(=O)Cc3cnn(-c4cccc(O)c4C=O)c3)n[nH]2)C1	Da	34561
CC(C)NC(=O)O[C@@H]1CC[C@H](c2cc(Nc3cc(Oc4cccc(O)c4C=O)ccn3)n[nH]2)C1	Da	34546

INPUT: Dear colleague, I am looking for the recorded Observed mass value of the covalent complex between compound and CDK2 protein of the following compound: `CC(C)NC(=O)O[C@@H]1CC[C@H](c2cc(NC(=O)c3ccnc(Oc4cccc(O)c4C=O)c3)n[nH]2)C1`
OUTPUT: 34574

====

# system.tested: CDK2-NanoLuc fusion with CCNE1 in 293T or 293 cells (Homo sapiens, UniProt P24941)
# Construct: host or cells: 293T (ATCC CRL-3216) or 293 (ATCC CRL-1573)
# protocol: NanoBRET Target Engagement (TE) Intracellular Kinase Assay, CDK2/CCNE1
# Type: cell-based
# experimental.context: NanoBRET TE intracellular kinase assay, 2-hour incubation, read-out: NanoBRET-CDK2/E1 IC50
# Method: Inhibitory effects of compounds were measured in NanoBRET TE Intracellular Kinase Assay. […] NanoBRET signals (donor emission wavelength at 450 nm, acceptor emission wavelength at 610 nm) were measured using Envision plate reader (PerkinElmer). NanoBRET ratio was calculated by: BRET Ratio=raw signal for acceptor/raw signal for donor. […]
I'd appreciate it if you marked entries Fulfilled when IC50 is lower than 8 nM and Not fulfilled when it is not.

smiles	class
O=Cc1c(O)cc(Cl)cc1OCC(=O)Nc1cc([C@H]2CC[C@@H](OC(=O)N3C4COCC3C4)C2)[nH]n1	Not fulfilled
CC(C)NC(=O)O[C@@H]1CC[C@H](c2cc(NC(=O)c3cnc(-c4cccc(O)c4C=O)o3)n[nH]2)C1	Not fulfilled
Cc1cc(C(=O)Nc2cc([C@H]3CC[C@@H](OC(=O)NC(C)C)C3)[nH]n2)cc(C=O)c1O	Fulfilled
CC(C)NC(=O)O[C@@H]1CC[C@H](c2cc(NC(=O)c3cc(-c4cccc(NS(C)(=O)=O)c4C=O)nn3C)n[nH]2)C1	Fulfilled

INPUT: Please determine if `COc1cc(O)c(C=O)c(OCC(=O)Nc2cc([C@H]3CC[C@@H](OC(=O)N4[C@@H](C)COC[C@@H]4C)C3)[nH]n2)c1` is below 8 nM in terms of IC50.
OUTPUT: Fulfilled

====

# System: Phospho-Rb Ser807/811 in OVCAR3 cells
# protocol: OVCAR3 Phospho-Rb Ser807/811 HTRF assay
# Assay type: cell-based
# experimental.context: Homo sapiens, OVCAR-3, 1 h, OVCAR3 cells, Phospho-Rb Ser807/811 HTRF, 1 hour incubation; read-out: pRb-OVCAR3 IC50
# Description: Cells were trypsinized and resuspended in 1 mM hydroxyurea (Sigma; H8627), 90% RPMI and 10% fetal bovine serum. […] Dose response curve normalized to DMSO control was plotted using four-parameter logistic model for IC50 calculation.
value.kind: pIC50
Here pIC50 is given on a logarithmic scale as minus log10 of the concentration in mol/L.

Below, 3 molecules whose answers are already recorded.
smiles	pIC50
COc1cc(OC)c(C=O)c(OCC(=O)Nc2cc([C@H]3C[C@@H](OC(=O)N4C5COCC4C5)C3)[nH]n2)c1	7.35
COc1cc(O)c(C=O)c(OCC(=O)Nc2cc([C@H]3CC[C@@H](OC(=O)NCCCC#N)C3)[nH]n2)c1	7.47
COCCOCCNC(=O)O[C@@H]1CC[C@H](c2cc(NC(=O)COc3cc(OC)cc(O)c3C=O)n[nH]2)C1	7.16

From here, focus on the item given below.
INPUT: Dear colleague, I am looking for the recorded pIC50 of the following molecule: `CC[C@H](C)NC(=O)O[C@@H]1CC[C@H](c2cc(NC(=O)COc3cc(OC)cc(O)c3C=O)n[nH]2)C1`
OUTPUT: 7.69

====

# Tested on: Phospho-Rb Ser807/811 in OVCAR3 cells
# protocol: OVCAR3 Phospho-Rb Ser807/811 HTRF assay
# Type: cell-based
# experimental.context: Homo sapiens, OVCAR-3, 1 h, OVCAR3 cells, Phospho-Rb Ser807/811 HTRF, 1 hour incubation; read-out: pRb-OVCAR3 IC50
value.kind: pIC50
Here pIC50 is given on a logarithmic scale as minus log10 of the concentration in mol/L.

Below, 6 compounds whose answers are already recorded.
smiles	pIC50
CCCCNC(=O)O[C@@H]1CC[C@H](c2cc(NC(=O)COc3cc(OC)cc(O)c3C=O)n[nH]2)C1	7.55
CCNN(C)C(=O)O[C@@H]1CC[C@H](c2cc(NC(=O)COc3cc(OC)cc(O)c3C=O)n[nH]2)C1	7.50
COc1cc(O)c(C=O)c(OCC(=O)Nc2cc([C@H]3CC[C@@H](OC(=O)N4CC5CC(C4)O5)C3)[nH]n2)c1	6.92
CC(C)NC(=O)O[C@@H]1CC[C@H](c2cc(NC(=O)c3cc(CCc4cccc(O)c4C=O)nn3C)n[nH]2)C1	5.56
COc1cc(O)c(C=O)c(OCC(=O)Nc2cc([C@H]3CC[C@@H](OC(=O)NN4CCCC4)C3)[nH]n2)c1	7.22
C#Cc1cccc(OCC(=O)Nc2cc([C@H]3CC[C@@H](OC(=O)NC(C)C)C3)[nH]n2)c1C=O	5.94

From here, focus on the item given below.
INPUT: Dear colleague, I am looking for the recorded pIC50 of the following compound: `COC[C@H](C)NC(=O)O[C@@H]1CC[C@H](c2cc(NC(=O)COc3cc(OC)cc(O)c3C=O)n[nH]2)C1`
OUTPUT: 7.56

====

# System: Phospho-Rb Ser807/811 in OVCAR3 cells
# protocol: OVCAR3 Phospho-Rb Ser807/811 HTRF assay
# Type: cell-based
# experimental.context: Homo sapiens, OVCAR-3, 1 h, OVCAR3 cells, Phospho-Rb Ser807/811 HTRF, 1 hour incubation; read-out: pRb-OVCAR3 IC50
value.kind: pIC50
Here pIC50 is given on a logarithmic scale as minus log10 of the concentration in mol/L.

Below, 6 compounds whose answers are already recorded.
compound	numeric.readout
COc1cc(O)c(C=O)c(OCC(=O)Nc2cc([C@H]3CC[C@@H](OC(=O)NCc4ccccc4)C3)[nH]n2)c1	7.15
COCC[C@H](C)NC(=O)O[C@@H]1CC[C@H](c2cc(NC(=O)COc3cc(OC)cc(O)c3C=O)n[nH]2)C1	7.53
Cc1ncc(Oc2cccc(O)c2C=O)nc1C(=O)Nc1cc([C@H]2CC[C@@H](OC(=O)NC(C)C)C2)[nH]n1	5.57
CC(C)(C)NC(=O)O[C@@H]1CC[C@H](c2cc(NC(=O)COc3cccc(O)c3C=O)n[nH]2)C1	6.64
CCN(CC#N)C(=O)O[C@@H]1CC[C@H](c2cc(NC(=O)COc3cc(OC)cc(O)c3C=O)n[nH]2)C1	7.86
COc1cc(O)c(C=O)c(OCC(=O)Nc2cc([C@H]3CC[C@@H](OC(=O)N4CC5(CCN5C)C4)C3)[nH]n2)c1	6.90

INPUT: Dear colleague, I am looking for the recorded pIC50 of the following compound: COc1cc(O)c(C=O)c([C@H]2C[C@@H]2C(=O)Nc2cc([C@H]3CC[C@@H](OC(=O)NC(C)C)C3)[nH]n2)c1 (single isomer, unassigned)
OUTPUT: 6.12

====

# system.tested: CDK2-NanoLuc fusion with CCNE1 in 293T or 293 cells (Homo sapiens, UniProt P24941)
# Construct: host or cells: 293T (ATCC CRL-3216) or 293 (ATCC CRL-1573)
# protocol: NanoBRET Target Engagement (TE) Intracellular Kinase Assay, CDK2/CCNE1
# Type: cell-based
# experimental.context: NanoBRET-CDK2/E1 IC50, NanoBRET TE intracellular kinase assay, 2-hour incubation
value.kind: pIC50
Here pIC50 is given on a logarithmic scale as minus log10 of the concentration in mol/L.

molecule	numeric.readout
CC(C)NC(=O)O[C@@H]1CC[C@H](c2cc(NC(=O)Cc3cnn(-c4cccc(O)c4C=O)c3)n[nH]2)C1 [Compound 16, trifluoroacetic acid]	7.46
C[C@H]1CCCN1C(=O)O[C@@H]1CC[C@H](c2cc(NC(=O)COc3cccc(O)c3C=O)n[nH]2)C1 [Compound 102]	8.38

From here, focus on the item given below.
INPUT: Dear colleague, I am looking for the recorded pIC50 of the following molecule: C[C@@H]1CCCN1C(=O)O[C@@H]1CC[C@H](c2cc(NC(=O)COc3cccc(O)c3C=O)n[nH]2)C1 [Compound 101]
OUTPUT: 8.24
